Can you tell me IC50 for the items I'm about to list?
- MEASURED TARGET: IL-17RA/IL17RC dimerization induced by IL-17A (Homo sapiens, UniProt Q16552)
- Sequence (Q16552 24-155): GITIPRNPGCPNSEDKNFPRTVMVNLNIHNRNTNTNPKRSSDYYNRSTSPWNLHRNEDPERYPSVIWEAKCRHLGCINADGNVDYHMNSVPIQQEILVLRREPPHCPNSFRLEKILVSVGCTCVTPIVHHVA
- PROTOCOL NOTES: IL-17RA/IL17RC dimerization assay in response to IL-17A (PathHunter Cytokine Receptor Assay)
- Format: cell-based
- ASSAY CONDITIONS: IL-17A at EC80; read-out: IC50 in IL-17RA/IL7RC dimerization assay
Residues, ends and D or L forms follow the SMILES beside them.

CC[C@H](C)[C@H](NC(=O)[C@H](CCC(=O)O)NC(=O)[C@H](CCC(N)=O)NC(=O)[C@@H]1CCCN1C(=O)[C@@H](NC(=O)[C@@H](NC(=O)[C@@H](NC(=O)[C@H](Cc1c[nH]cn1)NC(=O)[C@@H](NC(C)=O)C(C)C)C(C)C)[C@@H](C)O)[C@@H](C)CC)C(=O)N[C@@H](Cc1c[nH]c2ccccc12)C(=O)N[C@@H](CCC(=O)O)C(=O)N[C@@H](Cc1c[nH]c2ccccc12)C(=O)N[C@H](C(=O)N[C@@H](CCCNC(=N)N)C(=O)N[C@@H](CCCNC(=N)N)C(N)=O)C(C)C [SEQ ID NO: 237] (Ac-VHVTIPQEIWEWVRR-NH2); < 10 µM

State the recorded IC50 for every item in the following list.
1. CC[C@H](C)[C@H](NC(C)=O)C(=O)N[C@@H](Cc1c[nH]cn1)C(=O)N[C@H](C(=O)N[C@H](C(=O)N[C@H](C(=O)N1CCC[C@H]1C(=O)N[C@@H](C)C(=O)N[C@@H](CC(=O)O)C(=O)N[C@@H](CC(C)C)C(=O)N[C@@H](Cc1c[nH]c2ccccc12)C(=O)N[C@@H](CC(=O)O)C(=O)N[C@@H](Cc1c[nH]c2ccccc12)C(=O)N[C@H](C(=O)N[C@@H](CC(N)=O)C(=O)N[C@@H](CCCNC(=N)N)C(N)=O)[C@@H](C)CC)[C@@H](C)CC)[C@@H](C)O)C(C)C [SEQ ID NO: 10] (Ac-IHVTIPADLWDWINR-NH2)
2. CC[C@H](C)[C@H](NC(=O)[C@H](Cc1c[nH]c2ccccc12)NC(=O)[C@H](CC(=O)O)NC(=O)[C@H](Cc1c[nH]c2ccccc12)NC(=O)[C@H](CC(C)C)NC(=O)[C@H](CC(=O)O)NC(=O)[C@H](C)NC(=O)[C@@H]1CCCN1C(=O)[C@@H](NC(=O)[C@H](Cc1ccc(O)cc1)NC(=O)CNC(=O)[C@H](CCCNC(=N)N)NC(=O)[C@@H](NC(C)=O)C(C)C)C(C)C)C(=O)N[C@@H](CC(N)=O)C(=O)N[C@@H](CCCCN)C(N)=O [SEQ ID NO: 242] (Ac-VRGYVPADLWDWINK-NH2)
3. CC(=O)N[C@H](C(=O)N[C@@H](Cc1c[nH]cn1)C(=O)N[C@@H](Cc1ccccc1)C(=O)N[C@@H](CCC(N)=O)C(=O)N[C@@H](Cc1ccccc1)C(=O)N1CCC[C@H]1C(=O)N[C@@H](CCC(N)=O)C(=O)N[C@@H](CC(=O)O)C(=O)N[C@@H](Cc1c[nH]c2ccccc12)C(=O)N[C@@H](Cc1ccc(O)cc1)C(=O)N[C@@H](CCC(=O)O)C(=O)N[C@@H](Cc1c[nH]c2ccccc12)C(=O)N[C@H](C(=O)N[C@@H](CCCNC(=N)N)C(=O)N[C@@H](CCCNC(=N)N)C(N)=O)C(C)C)C(C)C [SEQ ID NO: 138] (Ac-VHFQFPQDWYEWVRR-NH2)

Data returned:
< 0.4 µM
< 10 µM
< 0.5 µM

Cited source for all entries: patent US11236129B2
